# target or test system: JNK1α1 (Homo sapiens)
# Construct: catalytic domain containing amino acids 1-364 and N-terminal hexahistidine tag; hexahistidine (His6) (N); made in house; host or cells: E. coli BL21 (DE3)
# Sequence (P45983 1-364): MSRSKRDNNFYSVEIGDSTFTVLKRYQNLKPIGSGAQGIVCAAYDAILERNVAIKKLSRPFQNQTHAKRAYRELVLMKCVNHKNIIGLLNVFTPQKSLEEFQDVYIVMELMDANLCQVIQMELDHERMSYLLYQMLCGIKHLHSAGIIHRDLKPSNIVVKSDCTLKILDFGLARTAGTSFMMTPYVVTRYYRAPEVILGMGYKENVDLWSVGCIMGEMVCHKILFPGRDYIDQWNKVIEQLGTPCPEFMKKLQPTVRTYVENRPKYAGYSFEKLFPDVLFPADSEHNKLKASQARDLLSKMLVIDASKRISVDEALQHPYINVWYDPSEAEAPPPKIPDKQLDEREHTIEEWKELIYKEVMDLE
# measurement description: Coupled spectrophotometric (PK/LDH) JNK1α1 assay: % inhibition and Ki determination
# Format: biochemical
# measurement context: @1 uM; read-out: % Inhibition JNK-1
Decision: inhibition at 1 µM compared against 30%; not below it gives t, below it gives f.

Threshold query (inhibition at 1 µM >= 30%) on CC(C)c1ncc(NC(=O)c2cccc3cnc(N[C@H]4CC[C@H](O)CC4)nc23)cn1
t

Threshold query (inhibition at 1 µM >= 30%) on O=C1NCCN1CCOc1cccc2cnc(N[C@H]3CC[C@H](O)CC3)nc12
t

Threshold query (inhibition at 1 µM >= 30%) on Cc1cc(CNC(=O)c2cccc3cnc(N[C@H]4CC[C@H](O)CC4)nc23)nn1C
t

Threshold query (inhibition at 1 µM >= 30%) on Cc1ccn(CCNC(=O)c2cccc3cnc(N[C@H]4CC[C@H](O)CC4)nc23)n1
f

Threshold query (inhibition at 1 µM >= 30%) on O[C@H]1CC[C@H](Nc2ncc3ccc(OC4CCC(F)(F)CC4)cc3n2)CC1
t

Threshold query (inhibition at 1 µM >= 30%) on CC1(COc2ccc3cnc(N[C@H]4CC[C@H](O)CC4)nc3c2)COC1
t

Threshold query (inhibition at 1 µM >= 30%) on O=C(N[C@@H]1COC[C@H]1O)c1ccc2cnc(NC3CCC3)nc2c1
f

Threshold query (inhibition at 1 µM >= 30%) on O=C(NC1CCCOC1)c1cccc2cnc(N[C@H]3CC[C@H](O)CC3)nc12 (some centres unmarked)
t

Threshold query (inhibition at 1 µM >= 30%) on Cc1c(C(C)NC(=O)c2cccc3cnc(N[C@H]4CC[C@H](O)CC4)nc23)cnn1C (some centres unmarked)
f

Threshold query (inhibition at 1 µM >= 30%) on COc1ccc(COc2cccc3cnc(N[C@H]4CC[C@H](O)CC4)nc23)cc1OC
t

Threshold query (inhibition at 1 µM >= 30%) on CN(C)c1ncccc1NC(=O)c1cccc2cnc(N[C@H]3CC[C@H](O)CC3)nc12
f

Threshold query (inhibition at 1 µM >= 30%) on O=C(N[C@H](CO)Cc1ccccc1)c1ccc2cnc(NC3CCC3)nc2c1
f

Threshold query (inhibition at 1 µM >= 30%) on COC[C@H]1CCC[C@H]1NC(=O)c1cccc2cnc(N[C@H]3CC[C@H](O)CC3)nc12
t

Threshold query (inhibition at 1 µM >= 30%) on O=C(NCCN1CCCC1=O)c1cccc2cnc(N[C@H]3CC[C@H](O)CC3)nc12
f

Threshold query (inhibition at 1 µM >= 30%) on Cc1noc(C)c1COc1ccc2cnc(N[C@H]3CC[C@H](O)CC3)nc2c1
t

Threshold query (inhibition at 1 µM >= 30%) on O[C@H]1CC[C@H](Nc2ncc3ccc(OC[C@@H]4CCCN5CCCC[C@H]45)cc3n2)CC1
t

Threshold query (inhibition at 1 µM >= 30%) on O=C(NC1(CO)CCCC1)c1ccc2cnc(NC3CCCC3)nc2c1
f

Threshold query (inhibition at 1 µM >= 30%) on COCCOc1cccc2cnc(N[C@H]3CC[C@H](O)CC3)nc12
f

Threshold query (inhibition at 1 µM >= 30%) on CCn1nc(C)c(CNC(=O)c2cccc3cnc(N[C@H]4CC[C@H](O)CC4)nc23)c1C
t

Threshold query (inhibition at 1 µM >= 30%) on O[C@H]1CC[C@H](Nc2ncc3ccc(O[C@@H]4CCN(Cc5ccccc5)C4)cc3n2)CC1
f

Threshold query (inhibition at 1 µM >= 30%) on COCCOc1ccc2cnc(N[C@H]3CC[C@H](O)CC3)nc2c1
t

Threshold query (inhibition at 1 µM >= 30%) on COc1ncccc1NC(=O)c1cccc2cnc(N[C@H]3CC[C@H](O)CC3)nc12
f

Threshold query (inhibition at 1 µM >= 30%) on Cc1nnc(CCNC(=O)c2cccc3cnc(N[C@H]4CC[C@H](O)CC4)nc23)o1
f

Threshold query (inhibition at 1 µM >= 30%) on Cc1nn(C)c(C)c1NC(=O)c1cccc2cnc(N[C@H]3CC[C@H](O)CC3)nc12
t

Threshold query (inhibition at 1 µM >= 30%) on CC1CN(CCOc2cccc3cnc(N[C@H]4CC[C@H](O)CC4)nc23)CC(C)O1 (some centres unmarked)
f
